system: EPHB4; settings: Compound Concentration (nM):1000;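 further: KINOMEscan scanMAX binding as percent activity remaining versus control; lower means stronger binding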
We begin with a simple list: items and their reported Percent Control.
Dear colleague, please return just the value in %, with no unit written.

INSERT INTO results (compound, measured_number) VALUES
  ('CN(C)c1cc2c(Nc3ccc4c(cnn4Cc4ccccc4)c3)ncnc2cn1 [GW282974X]', 85),
  ('COc1ccc(COc2ccc(Cc3cnc(N)nc3N)cc2OC)cc1 [GW632580X]', 92);

# input Would you please give the reported Percent Control of Nc1ncnc2occ(-c3ccc(NC(=O)Nc4cc(C(F)(F)F)ccc4F)cc3)c12 [GW770249X] with EPHB4?
# output 36

###

We begin with a simple list: items and their reported Percent Control.
test system: HIPK4; details: Compound Concentration (nM):1000
Dear colleague, please return just the value in %, with no unit written.

INSERT INTO results (compound, measured_number) VALUES
  ('COc1cc2ncn(-c3cc(O[C@H](C)c4ccccc4Cl)c(C(N)=O)s3)c2cc1OC [GSK237701A]', 99),
  ('C/C(Nc1ccc(S(N)(=O)=O)cc1)=C1/C(=O)Nc2ccccc21 [GW335962X]', 84),
  ('COc1cccc(-n2ncc3c(N/N=C/c4ccncc4)ncnc32)c1 [GW784752X]', 54),
  ('COC(=O)Nc1nc2ccc(Oc3ccc(NC(=O)Nc4cc(C(F)(F)F)ccc4F)cc3)cc2s1.Cl [GW693917A]', 10),
  ('O=C1Nc2ccc(C(=O)c3ccco3)cc2C1=Cc1cc(Cl)c(O)c(Cl)c1 [GW406108X]', 59);

--- query ---
# input Would you please give the reported Percent Control of COc1cccc(-c2c[nH]c3c(N/N=C/c4ccncc4)ncnc23)c1 [GW814408X] with HIPK4?
# output 59

###

tested on: TYK2(JH1domain-catalytic); settings: Compound Concentration (nM):1000
Kindly return satisfied if reported Percent Control is no lower than 70%; return not satisfied if it is lower.

# example entries with known answers
INSERT INTO assay_data (compound, class) VALUES
  ('COc1ccc(COc2ccc(Cc3cnc(N)nc3N)cc2OC)cc1 [GW632580X]', 'satisfied'),
  ('COc1cc(C=NNc2ncnc3c2cnn3-c2ccccc2)ccc1O [GW513184X]', 'not satisfied'),
  ('O=C1Nc2ccc(C(=O)c3ccco3)cc2C1=Cc1cc(Cl)c(O)c(Cl)c1 [GW406108X]', 'not satisfied');

Now for another entry.
# input Percent Control >= 70% for CCS(=O)(=O)c1ccc(OC)c(Nc2ncc(-c3cccc(F)c3)o2)c1 [GW621970X] ?
# output satisfied

###

We begin with a simple list: items and their reported Percent Control.
system: MST2; construct: gene STK3; conditions: Compound Concentration (nM):1000
Dear colleague, please return just the value in %, with no unit written.

# example entries with known answers
INSERT INTO assay_data (compound, observed_property, measured_number) VALUES
  ('COC(=O)Nc1nc2ccc(Oc3ccc(NC(=O)Nc4cc(C(F)(F)F)ccc4F)cc3)cc2s1.Cl [GW693917A]', 'Percent Control', 100),
  ('CCS(=O)(=O)c1ccc(OC)c(Nc2ncc(-c3cccc(F)c3)o2)c1 [GW621970X]', 'Percent Control', 100),
  ('CCn1c(-c2nonc2N)nc2c(C#CC(C)(C)O)nc(OCCNC)cc21.Cl', 'Percent Control', 100),
  ('CCc1ccc(Oc2nccc(-c3c(-c4ccc(F)cc4)ncn3C3CCNCC3)n2)cc1', 'Percent Control', 66),
  ('Cl.O=C(Nc1ccc(Oc2ccc3[nH]c(NC(=O)c4ccco4)nc3c2)cc1)Nc1cc(C(F)(F)F)ccc1F [GW683134A]', 'Percent Control', 100);

--- query ---
# input Would you please give the reported Percent Control of NS(=O)(=O)c1ccc(N/N=C2\C(=O)Nc3ccc(Cl)cc32)cc1 [GW280670X] with MST2?
# output 100
